# Tested on: LOX IMVI melanoma
# measurement.notes: NCI-60 one-dose screen, 48 h (100 = growth as untreated, 0 = no growth, -100 = all killed)
# test.context: 10 µM unless noted
About 83,000 compounds went through this panel and 20% of them were active in at least one assay; those are over-represented in the sample as a whole.
attribute.measured: growth (%)
Please state the figure in %; there is no need to write the unit.

Inquiry: What value of growth has been reported for the following compound? COc1ccc(Cl)cc1Nc1nc(C(F)(F)F)ccc1C(=O)N/N=C/c1ccccc1Cl
Reply text: -13.6

Inquiry: // next record O=C1/C(=C/c2ccc(C(F)(F)F)cc2)COc2ccc(O)c(O)c21
Reply text: -90.8

Inquiry: // next record CCCCNC1=C(OCC)C(=O)c2ccccc2C1=O
Reply text: 68.8

Inquiry: // next record COc1ccc(-c2ccc(-c3ccc(C(=N)N)cn3)s2)cc1
Reply text: 55

Just for reference, PubChem BioAssay (NCI) is where these values come from.
